Target: T1, HCV Core1-169 (HCV-1, UniProt P26664 1-169)
T1 construct: also called Solid Phase HCV Core
T1 sequence: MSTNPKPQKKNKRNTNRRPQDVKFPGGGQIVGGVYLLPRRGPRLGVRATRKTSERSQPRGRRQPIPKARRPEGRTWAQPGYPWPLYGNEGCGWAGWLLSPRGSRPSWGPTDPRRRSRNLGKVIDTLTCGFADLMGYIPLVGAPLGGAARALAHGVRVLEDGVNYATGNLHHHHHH
Experiment: sandwich EIA, capture 208A-557
quantity-kind: OD492 (OD)
Please reply with the bare figure in OD and do not write the unit itself.

Which OD492 is listed for HCV 208B-1096 (antibody, V domains shown) VH: QVQLQQSGAGLAKPGASVKMSCKASGYTFTANKMHWAKQRPGQGLEWIGYIDPSSGYTEYNHKIQYKATLTADTSSSTAYMQLSTLTFEDSAVYYCTNFAYWGQGTLVTVSA VL: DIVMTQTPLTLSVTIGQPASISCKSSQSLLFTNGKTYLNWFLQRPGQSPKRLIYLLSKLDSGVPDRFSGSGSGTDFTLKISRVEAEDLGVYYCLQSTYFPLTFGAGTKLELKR ? 0.17

Entry HCV 208A-692 (antibody, V domains shown) VH: QGQMQQSGAELAKPGASVKLSCKTSGFTFSSSYISWLKQKPGQSLEWIAWIFAGTGNTNYNQKFTDKAQLTVDTSSSTAYMQLSSLTTEDSAIYYCAISGTGFTYWGQGTLVTVSA VL: EVLMTQSPLSLPVSLGDQASISCRSSQSLEHSNGNTYLEWFLQRPGQPPKLLIYKVSSRFSGVPDRFSGSGSGTDFTLKISRVEAEDLGVYYCFQGSHVPFTFGSGTKLAIKR : reported OD492 = ? 0.53

# lookup: OD492 of HCV 208B-395 (antibody, V domains shown) VH: QVQLQQSGAGLAKPGASVKMSCKASGYTFTANKMHWTKQRPGQGLEWIGYIDPSSGYTQYNHKIQDKATLTADTSSSTAYMQLSSLTFEDSAVYYCTNFAYWGQGTLVTVSA VL: DIVLTQSPATLSVTPGDRVSLSCRASQRIYNYLHWYQQKSHESPRLLIKYASQSISGIPSRFSGSGSGTDFILTINSVETEDFGMYFCQQSNSWPLTFGAGTKLELRR 0.21
